target: α2δ protein (Rattus norvegicus); assay: α2δ protein binding experiment ([3H]-gabapentin binding inhibition); settings: 0.1 μmol/L test compound; [3H]-gabapentin 20 nmol/L; rat cerebral cortex membrane fraction; read-out: inhibitory activity
Sequence (P54290 25-944 limits assumed): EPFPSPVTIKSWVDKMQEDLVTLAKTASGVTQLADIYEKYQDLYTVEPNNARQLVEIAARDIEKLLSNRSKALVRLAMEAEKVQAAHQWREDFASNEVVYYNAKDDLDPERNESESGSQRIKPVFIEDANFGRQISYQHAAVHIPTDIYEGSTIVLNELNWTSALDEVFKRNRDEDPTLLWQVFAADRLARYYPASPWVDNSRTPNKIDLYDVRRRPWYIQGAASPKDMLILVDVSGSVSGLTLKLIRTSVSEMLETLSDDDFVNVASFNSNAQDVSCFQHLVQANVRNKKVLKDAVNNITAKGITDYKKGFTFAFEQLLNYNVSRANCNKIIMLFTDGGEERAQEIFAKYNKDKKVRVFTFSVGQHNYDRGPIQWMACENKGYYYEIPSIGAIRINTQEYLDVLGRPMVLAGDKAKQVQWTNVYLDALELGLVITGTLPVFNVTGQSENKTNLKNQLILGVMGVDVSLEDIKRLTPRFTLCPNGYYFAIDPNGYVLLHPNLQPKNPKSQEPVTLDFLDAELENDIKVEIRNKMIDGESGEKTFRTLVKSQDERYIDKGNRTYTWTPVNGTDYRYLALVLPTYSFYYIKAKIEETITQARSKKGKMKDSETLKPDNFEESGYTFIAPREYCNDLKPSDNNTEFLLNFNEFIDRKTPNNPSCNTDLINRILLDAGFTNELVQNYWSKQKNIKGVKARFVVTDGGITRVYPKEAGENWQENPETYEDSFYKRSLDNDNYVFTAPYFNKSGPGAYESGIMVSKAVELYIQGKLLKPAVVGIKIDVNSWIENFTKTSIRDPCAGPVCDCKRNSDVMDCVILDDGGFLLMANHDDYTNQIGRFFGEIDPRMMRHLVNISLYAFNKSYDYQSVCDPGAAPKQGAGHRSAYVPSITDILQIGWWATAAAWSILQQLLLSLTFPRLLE
Sequence (P54290 945-1091 limits assumed): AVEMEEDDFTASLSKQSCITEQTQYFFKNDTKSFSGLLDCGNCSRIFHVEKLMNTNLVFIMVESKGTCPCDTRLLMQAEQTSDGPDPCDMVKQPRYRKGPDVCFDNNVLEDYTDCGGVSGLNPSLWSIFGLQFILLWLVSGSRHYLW

compound	inhibition at 0.1 µM
Cn1cnc2cccc(N3C[C@@H]4CCCN4c4nc(N)ncc4C3=O)c2c1=O [Compound 85]	≥ 50%
CCNc1ncc2c(n1)N1CCC[C@H]1CN(c1cn(C)c3c(=O)n(C)ccc13)C2=O [Compound 93]	≥ 50%
CCNc1ncc2c(n1)N1C[C@H](O)C[C@H]1CN(c1cccc3c(=O)n(C)cnc13)C2=O [Compound 118]	≥ 50%
CCNc1ncc2c(n1)N1CCC[C@H]1CN(c1cccc3c1CCC(=O)N3C)C2=O [Compound 83]	≥ 50%
CNc1ncc2c(n1)N1CCC[C@H]1CN(c1csc3c(=O)n(C)ccc13)C2=O [Compound 91]	≥ 50%
CCNc1ncc2c(n1)N1C[C@H](F)C[C@H]1CN(c1cccc3c(=O)n(C)cnc13)C2=O [Compound 115]	≥ 50%
CCNc1ncc2c(n1)N1CCC[C@H]1CN(c1csc3c(=O)n(C)ccc13)C2=O [Compound 90]	≥ 50%
CCNc1ncc2c(n1)N1C[C@@H](OC)C[C@H]1CN(c1cccc3c(=O)n(C)cnc13)C2=O [Compound 117]	≥ 50%
